test system: Proteasome subunit beta type-9 (Homo sapiens) (UniProt P28065)
Sequence (whole entry): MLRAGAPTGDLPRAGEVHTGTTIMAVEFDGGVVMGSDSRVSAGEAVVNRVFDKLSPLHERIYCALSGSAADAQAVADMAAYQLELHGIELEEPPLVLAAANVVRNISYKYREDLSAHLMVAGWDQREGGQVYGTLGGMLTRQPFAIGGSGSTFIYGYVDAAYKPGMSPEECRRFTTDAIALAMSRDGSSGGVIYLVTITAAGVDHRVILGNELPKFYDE
experiment: Inhibition of human 20S immunoproteasome beta-1 at 50 uM using Ac-PAL-AMC as substrate incubated for 15 mins measured for 45 mins by fluorescence assay relative to control
Property: inhibition; scope: individual compounds
reported metric: inhibition

• CC(C)(C)OC(=O)NCCCC[C@H](NC(=O)[C@H](Cc1ccc(OCc2ccccc2)cc1)NC(=O)OC(C)(C)C)C(=O)N[C@@H](C[C@]1(O)C(=O)Nc2ccccc21)C(=O)NCc1ccccc1 = > 85%
• C[C@@H](NC(=O)[C@H](Cc1ccc(OCc2ccccc2)cc1)NC(=O)OC(C)(C)C)C(=O)N[C@@H](C[C@]1(O)C(=O)Nc2ccccc21)C(=O)NCc1ccccc1 = > 85%
• C[C@H](NC(=O)OCc1ccccc1)C(=O)N[C@@H](C[C@]1(O)C(=O)Nc2ccccc21)C(=O)NCc1ccccc1 = > 85%
• CNC(=O)[C@H](C[C@@]1(O)C(=O)Nc2ccccc21)NC(=O)[C@H](C)NC(=O)[C@H](Cc1ccc(OCc2ccccc2)cc1)NC(=O)OC(C)(C)C = 10%
• COc1ccc(C[C@H](NC(=O)[C@H](C)NC(=O)CN2CCOCC2)C(=O)N[C@@H](Cc2ccccc2)C(=O)[C@@]2(C)CO2)cc1 = > 85%
• C[C@H](O)[C@@H](NC(=O)[C@H](Cc1ccc(OCc2ccccc2)cc1)NC(=O)OC(C)(C)C)C(=O)N[C@@H](C[C@]1(O)C(=O)Nc2ccccc21)C(=O)NCc1ccccc1 = > 85%

###

test system: Proteasome subunit beta type-8 (Homo sapiens, UniProt P28062)
Sequence (P28062 whole entry): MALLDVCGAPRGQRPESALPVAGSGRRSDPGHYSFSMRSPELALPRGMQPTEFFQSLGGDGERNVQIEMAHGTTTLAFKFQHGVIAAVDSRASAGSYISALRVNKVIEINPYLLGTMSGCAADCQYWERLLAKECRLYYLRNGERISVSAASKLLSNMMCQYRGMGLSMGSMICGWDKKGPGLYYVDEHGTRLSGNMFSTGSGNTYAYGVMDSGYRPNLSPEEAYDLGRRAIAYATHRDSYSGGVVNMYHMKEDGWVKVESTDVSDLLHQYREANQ
experiment: Inhibition of human 20S immunoproteasome beta-5 using Suc-LLVY-AMC as substrate incubated for 15 mins measured for 45 mins by fluorescence assay
reported metric: IC50 (µM)

- C[C@H](NC(=O)[C@H](Cc1ccc(OCc2ccccc2)cc1)NC(=O)OC(C)(C)C)C(=O)N[C@@H](C[C@]1(O)C(=O)Nc2ccccc21)C(=O)NCC1CCCCC1: 5.2
- C[C@H](NC(=O)[C@H](Cc1ccc(OCc2ccccc2)cc1)NC(=O)OC(C)(C)C)C(=O)N[C@@H](C[C@]1(O)C(=O)Nc2ccccc21)C(=O)NCCC1CCCCC1: 2.7
- C[C@H](NC(=O)[C@H](Cc1ccc(OCc2ccccc2)cc1)NC(=O)OC(C)(C)C)C(=O)N[C@@H](C[C@]1(O)C(=O)Nc2ccccc21)C(=O)NCCc1ccccc1: 6.5
- CC(C)(C)OC(=O)N[C@@H](Cc1ccc(OCc2ccccc2)cc1)C(=O)NCC(=O)N[C@@H](C[C@]1(O)C(=O)Nc2ccccc21)C(=O)NCc1ccccc1: 7.8
- C[C@H](NC(=O)[C@H](Cc1ccc(OCc2ccccc2)cc1)NC(=O)OC(C)(C)C)C(=O)N[C@@H](C[C@]1(O)C(=O)Nc2ccccc21)C(=O)NCc1ccc(-c2ccccc2)cc1: 19.7
- CC(C)c1ccc(CNC(=O)[C@H](C[C@]2(O)C(=O)Nc3ccccc32)NC(=O)[C@H](C)NC(=O)[C@H](Cc2ccc(OCc3ccccc3)cc2)NC(=O)OC(C)(C)C)cc1: 17.1

###

Property: pIC50; scope: individual compounds
test system: Proteasome subunit beta type-10 (Homo sapiens, UniProt P40306)
Sequence (P40306 whole entry): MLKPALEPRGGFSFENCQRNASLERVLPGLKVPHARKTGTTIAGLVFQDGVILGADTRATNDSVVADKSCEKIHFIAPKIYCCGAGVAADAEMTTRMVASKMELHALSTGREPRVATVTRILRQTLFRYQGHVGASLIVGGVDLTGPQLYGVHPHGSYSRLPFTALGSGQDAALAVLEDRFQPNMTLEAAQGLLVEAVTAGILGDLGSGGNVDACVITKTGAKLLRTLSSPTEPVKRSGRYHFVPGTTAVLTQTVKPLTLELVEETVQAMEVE
experiment: Inhibition of human 20S immunoproteasome beta-2 using BocLRR-AMC as substrate incubated for 15 mins measured for 45 mins by fluorescence assay
pIC50: −log10 of the molar value.
reported metric: pIC50

• C[C@H](NC(=O)c1ccc(OCc2ccccc2)cc1)C(=O)N[C@@H](C[C@]1(O)C(=O)Nc2ccccc21)C(=O)NCc1ccccc1 = 4.55
• C[C@H](NC(=O)[C@H](Cc1ccc(OCc2ccccc2)cc1)NC(=O)OC(C)(C)C)C(=O)N[C@@H](C[C@@]1(O)C(=O)Nc2ccccc21)C(=O)NCc1ccccc1 = 4.47
• CNC(=O)[C@H](C[C@]1(O)C(=O)Nc2ccccc21)NC(=O)[C@H](C)NC(=O)[C@H](Cc1ccc(OCc2ccccc2)cc1)NC(=O)OC(C)(C)C = 4.10

###

test system: Proteasome subunit beta type-9 (Homo sapiens, UniProt P28065)
experiment: Inhibition of human 20S immunoproteasome beta-1 using Ac-PAL-AMC as substrate incubated for 15 mins measured for 45 mins by fluorescence assay
reported metric: IC50 (µM)

- C[C@H](NC(=O)Cc1cccc(Oc2ccccc2)c1)C(=O)N[C@@H](C[C@]1(O)C(=O)Nc2ccccc21)C(=O)NCc1ccccc1: 14
- C[C@H](NC(=O)[C@@H](N)Cc1ccc(OCc2ccccc2)cc1)C(=O)N[C@@H](C[C@]1(O)C(=O)Nc2ccccc21)C(=O)NCc1ccccc1: 21.5
- C[C@H](NC(=O)[C@H](Cc1ccc(OCc2ccccc2)cc1)NC(=O)OC(C)(C)C)C(=O)N[C@@H](C[C@@]1(O)C(=O)N(C)c2ccccc21)C(=O)NCc1ccccc1: 8.9

###

Property: pIC50; scope: individual molecules
test system: Proteasome Macropain subunit MB1 (Homo sapiens, UniProt P28074)
experiment: Inhibition of human 20S constitutive proteasome beta-5 using Suc-LLVY-AMC as substrate incubated for 15 mins measured for 45 mins by fluorescence assay
pIC50: −log10 of the molar value.
reported metric: pIC50

* C[C@H](O)[C@@H](NC(=O)OCc1ccccc1)C(=O)N[C@@H](C[C@]1(O)C(=O)Nc2ccccc21)C(=O)NCc1ccccc1 | 6.06
* C[C@H](NC(=O)[C@H](Cc1ccc(OCc2ccccc2)cc1)NC(=O)OC(C)(C)C)C(=O)N[C@@H](C[C@]1(O)C(=O)Nc2ccccc21)C(=O)NCCC1CCCCC1 | 5.55
* C[C@H](O)[C@@H](NC(=O)[C@H](Cc1ccc(OCc2ccccc2)cc1)NC(=O)OC(C)(C)C)C(=O)N[C@@H](C[C@]1(O)C(=O)Nc2ccccc21)C(=O)NCc1ccccc1 | 6.90
* COC(=O)CCNC(=O)[C@H](C[C@]1(O)C(=O)Nc2ccccc21)NC(=O)[C@H](C)NC(=O)[C@H](Cc1ccc(OCc2ccccc2)cc1)NC(=O)OC(C)(C)C | 4.19
* C[C@H](NC(=O)[C@H](Cc1ccc(OCc2ccccc2)cc1)NC(=O)OC(C)(C)C)C(=O)N[C@@H](C[C@@]1(O)C(=O)N(C)c2ccccc21)C(=O)NCc1ccccc1 | 5.17
* CC(C)(C)OC(=O)N[C@@H](Cc1ccc(OCc2ccccc2)cc1)C(=O)N[C@@H](CC(N)=O)C(=O)N[C@@H](C[C@]1(O)C(=O)Nc2ccccc21)C(=O)NCc1ccccc1 | 5.83
* C[C@H](NC(=O)c1ccc(OCc2ccccc2)cc1)C(=O)N[C@@H](C[C@]1(O)C(=O)Nc2ccccc21)C(=O)NCc1ccccc1 | 6.95
* C[C@@H](NC(=O)[C@H](Cc1ccc(OCc2ccccc2)cc1)NC(=O)OC(C)(C)C)C(=O)N[C@@H](C[C@]1(O)C(=O)Nc2ccccc21)C(=O)NCc1ccccc1 | 5.04

###

test system: Proteasome Macropain subunit MB1 (Homo sapiens)
Sequence (P28074 whole entry): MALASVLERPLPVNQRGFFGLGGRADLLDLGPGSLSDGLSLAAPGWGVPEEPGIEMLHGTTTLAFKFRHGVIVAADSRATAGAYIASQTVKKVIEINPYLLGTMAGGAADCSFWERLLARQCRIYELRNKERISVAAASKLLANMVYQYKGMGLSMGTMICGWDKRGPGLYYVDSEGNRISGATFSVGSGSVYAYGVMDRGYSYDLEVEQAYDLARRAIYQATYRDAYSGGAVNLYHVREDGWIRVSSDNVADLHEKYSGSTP
experiment: Inhibition of human 20S constitutive proteasome beta-5 using Suc-LLVY-AMC as substrate incubated for 15 mins measured for 45 mins by fluorescence assay
reported metric: IC50 (µM)

* C[C@H](NC(=O)[C@H](Cc1ccc(OCc2ccccc2)cc1)NC(=O)OC(C)(C)C)C(=O)N[C@@H](C[C@]1(O)C(=O)Nc2ccccc21)C(=O)NCC1CCCCC1 | 4.3
* C[C@H](NC(=O)[C@H](Cc1ccc(OCc2ccccc2)cc1)NC(=O)OC(C)(C)C)C(=O)N[C@@H](C[C@]1(O)C(=O)Nc2ccccc21)C(=O)NCc1ccc(-c2ccccc2)cc1 | 28.7
* C[C@H](NC(=O)OCc1ccccc1)C(=O)N[C@@H](C[C@]1(O)C(=O)Nc2ccccc21)C(=O)NCc1ccccc1 | 5.1
